Measured ratio to parent values are reported for all entries that follow.
B1: H2-Kb / Ed5 (parent complex)
chain 1: GDSVTQTEGPVTVSESESLIINCTYSATSIAYPNLFWYVRYPGEGLQLLLKVITAGQKGSSRGFEATYNKETTSFHLQKASVQESDSAVYYCALGSYNQGKLIFGQGTKLSIKP
chain 2: DTTVKQNPRYKLARVGKPVNLICSQTMNHDTMYWYQKKPNQAPKLLLFYYDKILNREADTFEKFQSSRPNNSFCSLYIGSAGLEYSAMYLCASSRRLGASQNTLYFGAGTRLSVL
chain 3: not shown
chain 4: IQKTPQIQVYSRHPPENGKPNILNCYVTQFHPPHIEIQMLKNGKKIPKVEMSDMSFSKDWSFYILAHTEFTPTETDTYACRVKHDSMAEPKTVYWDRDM
chain 5: SIINFEKL

variants of: B1; experiment: % of reporter cells activated (NFAT-GFP), raw; also: test concentration or dose not given here
Quantity: ratio to parent

INSERT INTO assay_data (variant_name, reported_result) VALUES
  ('chain 5 I2E', 0.852),
  ('chain 5 E6F', 0.506),
  ('chain 5 I2G', 0.875),
  ('chain 5 S1G', 0.491),
  ('chain 5 E6Y', 0.633),
  ('chain 5 F5N', 0.855),
  ('chain 5 S1W', 0.374),
  ('chain 5 F5Q', 0.951),
  ('chain 5 I3Y', 0.0245),
  ('chain 5 K7C', 0.686),
  ('chain 5 I3D', 0.436),
  ('chain 5 S1V', 0.126),
  ('chain 5 N4L', 0.182),
  ('chain 5 E6C', 0.491),
  ('chain 5 S1M', 0.02),
  ('chain 5 I3C', 0.673),
  ('chain 5 K7M', 0.725),
  ('chain 5 L8H', 0.958),
  ('chain 5 S1C', 0.161),
  ('chain 5 K7L', 0.728),
  ('chain 5 S1H', 0.559),
  ('chain 5 S1P', 0.0946),
  ('chain 5 E6G', 0.939),
  ('chain 5 K7F', 0.657),
  ('chain 5 L8Q', 0.783),
  ('chain 5 L8C', 0.929),
  ('chain 5 I3N', 0.164),
  ('chain 5 K7V', 0.62),
  ('chain 5 F5G', 0.698),
  ('chain 5 I2F', 0.851),
  ('chain 5 K7Y', 0.717),
  ('chain 5 I3H', 0.121),
  ('chain 5 I2H', 0.763),
  ('chain 5 K7R', 0.853),
  ('chain 5 N4F', 0.0112),
  ('chain 5 K7H', 0.798),
  ('chain 5 I2A', 1.01),
  ('chain 5 I2R', 0.641),
  ('chain 5 F5P', 0.98),
  ('chain 5 N4G', 0.00398),
  ('chain 5 F5K', 0.905),
  ('chain 5 K7N', 0.714),
  ('chain 5 F5D', 0.92),
  ('chain 5 E6R', 0.0689),
  ('chain 5 I2K', 0.798),
  ('chain 5 F5M', 0.938),
  ('chain 5 N4W', 0.0358),
  ('chain 5 E6A', 0.606),
  ('chain 5 N4E', 0.00233),
  ('chain 5 K7E', 0.632),
  ('chain 5 I3W', 0.372),
  ('chain 5 N4M', 0.00113),
  ('chain 5 S1R', 0.293),
  ('chain 5 I2M', 0.917),
  ('chain 5 E6Q', 0.619),
  ('chain 5 N4A', 0.002),
  ('chain 5 E6N', 0.498),
  ('chain 5 F5L', 0.996),
  ('chain 5 S1Q', 0.556),
  ('chain 5 E6P', 0.186),
  ('chain 5 L8W', 0.585),
  ('chain 5 L8F', 0.694),
  ('chain 5 S1D', 0.629),
  ('chain 5 K7S', 0.605),
  ('chain 5 K7G', 0.658),
  ('chain 5 L8G', 0.901),
  ('chain 5 I3A', 0.32),
  ('chain 5 I3G', 0.28),
  ('chain 5 N4S', 0.0018),
  ('chain 5 N4C', 0.164),
  ('chain 5 I3F', 0.0887),
  ('chain 5 E6T', 0.622),
  ('chain 5 N4I', 0.274),
  ('chain 5 F5Y', 0.892),
  ('chain 5 L8T', 0.671),
  ('chain 5 L8K', 0.793),
  ('chain 5 F5A', 1.01),
  ('chain 5 L8P', 0.826),
  ('chain 5 K7D', 0.593),
  ('chain 5 I2C', 0.958),
  ('chain 5 L8D', 0.747);

Data origin: paper PMC11480844
